# System: 786-0
# measurementNotes: NCI tumour cell line growth inhibition, 48 h
The source made the active and inactive calls. Cut-off read from the data, not from the text of the source: active = GI50 up to about 1.1 µM and inactive = higher.
I would appreciate it if you answered using one of these outcomes: active, inactive

Inquiry: What classification did `FC(F)(F)c1cccc(-c2nc3ccccc3c3c2[C@@]2(N4CCCC4)CCCC[C@@H]32)c1` end up with in this test?
Reply text: inactive

Inquiry: Returns: the outcome recorded for CC1=C(C#N)C23C(=O)c4ccccc4C(=O)C2=C(O)C=CC3(O)N1 (stereo not given) in this assay.
Reply text: inactive

Inquiry: So what was the verdict on `N#Cc1ccc2[nH]c3c(c2c1)CC(=O)Nc1ccccc1-3` in this test?
Reply text: inactive

Inquiry: GET /call?item= CC(=O)Nc1ccc(C2CC(c3ccc([N+](=O)[O-])cc3)=Nc3ccccc3S2)cc1 (stereo not given) returns the recorded outcome of this test.
Reply text: inactive

Inquiry: # lookup: test call for `Cc1ccc(NC(=S)N/N=C(/c2ccccc2)c2ccccn2)cc1`
Reply text: active

Inquiry: Tell me the assay call for `Oc1nc(S)nc(SCc2c(Cl)c(Cl)c(Cl)c(Cl)c2Cl)n1` please.
Reply text: inactive

Inquiry: What classification did `CC1=C(C(=O)Nc2c(C)cccc2C)C(c2ccccc2Cl)C(C(=O)Nc2c(C)cccc2C)=C(C)N1` end up with in this test?
Reply text: inactive

Inquiry: Which outcome was assigned to O=C1CC(CC(O)C(O)CO)CC(=O)N1 (stereo not given) in this test?
Reply text: inactive

Inquiry: What outcome does the record of this test show for `CCOC(=O)NC(=O)c1cn(CCN2CCN(C(=O)NCCCCCCNC(=O)N3CCN(CCn4cc(C(=O)NC(=O)OCC)c(=O)n(CCN(CC)CC)c4=O)CC3)CC2)c(=O)n(CCC(CC)CC)c1=O` ?
Reply text: inactive

Inquiry: Dear all, I need the recorded test outcome for `CCOP(=O)(OCC)/C(C#N)=C/c1cnc(-c2ccccc2)[nH]1` , thank you.
Reply text: inactive

Inquiry: Would you mind telling me which call this test gave O=C(/C=C/c1ccc(O)c(O)c1)OCC(OC(=O)/C=C/c1ccc(O)c(O)c1)C(=O)O (stereo not given) ?
Reply text: inactive

Inquiry: Record request — test call for COc1cccc(CC2C(=O)N/C(=N\C(C)=O)N2C)c1OC(C)=O (stereo not given)
Reply text: inactive

Inquiry: What outcome does the record of this test show for O=C(O)c1ccccc1CC(Cc1ccccc1)C(=O)O (stereo not given) ?
Reply text: inactive

Inquiry: Short answer needed: outcome of this test for `O=C1NC(=S)N/C1=C\c1ccc(Sc2ccccc2C(=O)O)s1` ?
Reply text: inactive

Inquiry: Status in this test for `O=C(NCCN1CCOCC1)c1ccc(I)cc1` ?
Reply text: inactive

Inquiry: In this assay, the call recorded for COC(=O)[C@@]12CC(C(C)C)[C@H]3CC(C(=O)C=C1OC)[C@H]32 (stereo not given in full) was what?
Reply text: inactive

Inquiry: What is the recorded call for this molecule in the test? N#CCC1COc2ccccc2O1 (stereo not given)
Reply text: inactive

Inquiry: # outcome recorded in this test, key = `Cc1ccc(O)cc1.Cc1cccc(O)c1.Cc1ccccc1O`
Reply text: inactive

Inquiry: What call does the record list for `Cc1ccc(NC(Nc2ccc(C)cc2C)=C(/C=C(\Cl)[N+](=O)[O-])[N+](=O)[O-])c(C)c1` ?
Reply text: inactive

Inquiry: How did this test come out for OC(COC(c1ccccc1)(c1ccccc1)c1ccccc1)C(O)CC1SCCS1 (stereo not given) ?
Reply text: inactive

* * *

# System: K562
# measurementNotes: NCI tumour cell line growth inhibition, 48 h
Calls of active or inactive are those of the source. Rule as the data show it: active = GI50 up to about 1.1 µM and inactive = higher.
The reply should name one outcome from active, inactive

Inquiry: Recorded test outcome, item `Cc1ccc(NC(=O)C(=O)CC(=O)c2c(C)[n+]([O-])c3ccccc3[n+]2[O-])cc1C`
Reply text: inactive

Inquiry: Each compound tested received a call. Report the one for `CCOC(=O)/C(=C\c1c(C)[nH]c2ccccc12)P(=O)(OCC)OCC` .
Reply text: inactive

Inquiry: Record request — test call for `Cc1cn2cc(-c3cccs3)nc2s1`
Reply text: inactive

Inquiry: Outcome? `CCc1n[nH]c(=O)n1/N=C/c1ccc(C)cc1`
Reply text: inactive

Inquiry: Hey, what did the test say about CCOC(=O)C1C(=O)CC(C)(O)C(C(=O)OCC)C1c1ccc(O)c(OC)c1 (stereo unspecified) ?
Reply text: inactive

Inquiry: Called result for CCSC1SC(c2ccccc2)(c2ccccc2)c2ccccc21 (stereo unspecified)
Reply text: inactive

Inquiry: Hey, what did the test say about `CSc1ncc2c(C#N)c3[nH]c4ccccc4n3c(=O)c2n1` ?
Reply text: inactive

Inquiry: Could you kindly confirm the outcome this assay logged for C=C1CC(COc2cc(=O)oc3ccccc23)(c2ccccc2)OC1=O (stereo unspecified) ?
Reply text: active

Inquiry: What classification did Cc1ccccc1NC(=O)C1C(=O)N(c2ccccc2C)C(=O)/C1=N\NC(N)=O (stereo unspecified) end up with in this test?
Reply text: inactive

Inquiry: What did this assay record as the result for `Cc1ccc2c(c1)[nH]c(=S)n2/C=C1\C(=O)Oc2ccccc2C1=O` ?
Reply text: inactive

Inquiry: Assay outcome for `N/C(=N\n1c(=S)[nH]c2ccccc2c1=O)Nn1c(=S)[nH]c2ccccc2c1=O` : what was it?
Reply text: inactive

* * *

# System: HL-60
# measurementNotes: NCI tumour cell line growth inhibition, 48 h
The source made the active and inactive calls. No stated cut-off is given here; in the data, active = GI50 up to about 1.1 µM and inactive = higher. Where a SMILES comes first, the peptide text is derived from it. [ ]: non-standard residue; d: D form. Phe(4-NO2) = N[CH](Cc1ccc([N+](=O)[O-])cc1)C(=O)O
Field 'call' accepts active, inactive

Inquiry: What call does the record list for `CC(=O)Nc1ccccc1C=C1c2ccccc2-c2ccccc21` ?
Reply text: inactive

Inquiry: Lab log entry: CC(NC(=O)C(Cc1ccc([N+](=O)[O-])cc1)NC(=O)C(N)CCCCN)C(=O)NC(Cc1ccc([N+](=O)[O-])cc1)C(N)=O (stereo not given) (H-K[Phe(4-NO2)]A[Phe(4-NO2)]-NH2; configuration not given here) — outcome as called in the assay?
Reply text: inactive

Inquiry: Kindly provide the recorded test outcome for the following molecule: `Cc1c(C)c2c(c(N)c1C#N)C(=O)N(Nc1ccccc1)C2=O`
Reply text: inactive

Inquiry: Dear all, I need the recorded test outcome for `COc1cc2c3cc1Oc1c(O)c(OC)cc4c1[C@H](Cc1ccc(cc1)Oc1cc(ccc1O)C[C@H]3N(C)CC2)N(C)CC4` , thank you.
Reply text: inactive

Inquiry: I'd appreciate the recorded outcome for `CC1=C(C(=O)Nc2c(C)cccc2C)C(c2ccccc2Cl)C(C(=O)Nc2c(C)cccc2C)=C(C)N1` from this test.
Reply text: inactive

Inquiry: For this molecule, state the assay outcome: `O=c1c2cc(-c3ccccc3)sc2nc2sc(-c3ccccc3)nn12`
Reply text: inactive

Inquiry: Write down the call the test reported for this molecule. Item: O=C1CC(CC(O)C(O)CO)CC(=O)N1 (stereo not given)
Reply text: inactive

Inquiry: Recorded test outcome, item `O=C1C=CC(=O)c2ncccc21`
Reply text: active

Inquiry: Hi team, can someone confirm the assay call for `Cn1c2c(cc(-c3ccccc3)c1=O)COc1ccccc1-2` ?
Reply text: inactive

Inquiry: What classification did `Cc1cc2c(cc1C)C(=O)/C(=N/Nc1ccc(F)cc1)CCO2` end up with in this test?
Reply text: inactive

* * *

# Tested on: OVCAR-5
# measurementNotes: NCI tumour cell line growth inhibition, 48 h
Active and inactive are the calls of the source. Rule as the data show it: active = GI50 up to about 1.1 µM and inactive = higher.
Please answer using one outcome listed in label 1 = active, label 0 = inactive

Inquiry: Write down the call the test reported for this compound. Item: OC(COC(c1ccccc1)(c1ccccc1)c1ccccc1)C(O)CC1SCCS1 (configuration not stated)
Reply text: label 0

Inquiry: Write down the call the test reported for this compound. Item: CCOc1ccc(NC2=NC(=O)C(CC(=O)Nc3ccc(Cl)cc3Cl)S2)cc1 (configuration not stated)
Reply text: label 0

Inquiry: Please state the recorded outcome for this compound: CCc1c(C)c(C#N)c(=S)n(C2OC(CO)C(O)C(O)C2O)c1C (configuration not stated)
Reply text: label 0

Inquiry: Name the outcome recorded for S=C1NC(c2ccccc2)NC(c2ccccc2)S1 (configuration not stated) in the assay.
Reply text: label 0

Inquiry: // param item: `CC1=C(C(=O)Nc2c(C)cccc2C)C(c2ccccc2Cl)C(C(=O)Nc2c(C)cccc2C)=C(C)N1` ; yields the recorded call
Reply text: label 0

Inquiry: Assay result, entry `Cc1ccc(C(=O)N(C2CCCCC2)C2CCCCC2)cc1/N=N/N(C)C` — outcome?
Reply text: label 0

Inquiry: Dear all, I need the recorded test outcome for `CC(=O)Nc1ncc2c(n1)-c1ccccc1OC2` , thank you.
Reply text: label 0

Inquiry: Test call, this compound: `COC(=O)C1=C(C)NC(C)=C(C(=O)OC)C1c1cccc(N=O)c1`
Reply text: label 0

Inquiry: Just curious, what result did `Cc1ccc(/C=C2/NC(=S)SC2=O)cc1` get here?
Reply text: label 0

Inquiry: // return assay outcome for `COCCOC(=O)C(C)=[N+]=[N-]`
Reply text: label 0

Inquiry: Could you kindly confirm the outcome this assay logged for `CCCc1cc(=O)oc2c3c(c4c(c12)OC(C)(C)CC4)O[C@H](C)[C@@H](C)[C@H]3O` ?
Reply text: label 0

Inquiry: // return assay outcome for C=C1CC(COc2cc(=O)oc3ccccc23)(c2ccccc2)OC1=O (configuration not stated)
Reply text: label 0

Inquiry: How did this test come out for C=CCC1OC(C)(C)Oc2ccc(OCOCCOC)cc21 (configuration not stated) ?
Reply text: label 0

Inquiry: Could you check what this test reported for `COc1ccc(NC(=O)/C(Cc2cc(=O)oc3cc(O)ccc23)=N\NC(C)(C)C)c(OC)c1` ?
Reply text: label 0

Inquiry: Could you please tell me the result logged for `N#CN1C2CCC1CC(=O)C2` in this assay?
Reply text: label 0

Inquiry: Write down the call the test reported for this compound. Item: `Cc1ccc(C(=O)c2nnc(C(=O)c3ccc(C)cc3)nn2)cc1`
Reply text: label 0

Inquiry: Name the outcome recorded for `O=[N+]([O-])c1cccc(CSc2nc(O)c3nc[nH]c3n2)c1` in the assay.
Reply text: label 0

Inquiry: Hey, what did the test say about CO[C@H]1C[C@H](O[C@H]2CC[C@]3(C=O)[C@H]4CC[C@]5(C)[C@@H](C6=CC(=O)OC6)CC[C@]5(O)[C@@H]4CC[C@]3(O)C2)O[C@H](C)[C@H]1O [CYMARIN] ?
Reply text: label 1

Inquiry: Please share the test call associated with OC1(C2(c3ccc(Cl)cc3)CCCC2)c2ccccc2C2=NCCN21 (configuration not stated) .
Reply text: label 0

Inquiry: GET /call?item= `CC1(C)[C@@H](Cn2ccc(=O)[nH]c2=O)CC[C@@]1(C)CO` returns the recorded outcome of this test.
Reply text: label 0

Inquiry: Could you kindly confirm the outcome this assay logged for `COc1ccc([N+](=O)[O-])c2c(NCCCN(C)C)c3ccccc3nc12` ?
Reply text: label 1

Inquiry: Query: recorded result category for `Nc1ccc2c(c1)NCCN2` in this test
Reply text: label 0

Inquiry: State the result this test recorded for `O=C1C=CC(=O)c2ncccc21` .
Reply text: label 0

Inquiry: How was COC(=O)[C@@H]1C2OC(C)(C)OC2CN1C(=O)OCc1ccccc1 (some centres not stated) classified in this test?
Reply text: label 0

Inquiry: So what was the verdict on S=C1NN=C2C(=C3CCCC4C5CCCCC5N2C34)N1 (configuration not stated) in this test?
Reply text: label 0

Inquiry: Outcome? `FC(F)(F)c1cccc(-c2nc3ccccc3c3c2[C@@]2(N4CCCC4)CCCC[C@@H]32)c1`
Reply text: label 0

Inquiry: Recorded call for `COc1ccc(CNc2nc(NCc3ccc(OC)cc3)nc(N3CCOCC3)n2)cc1` ?
Reply text: label 0

Inquiry: Recorded test outcome, item `O=c1c2cc(-c3ccccc3)sc2nc2sc(-c3ccccc3)nn12`
Reply text: label 0

Inquiry: Field: outcome | Entry: CCN(C1=CC(=O)NC2CCCCN12)c1ccccc1 (configuration not stated)
Reply text: label 0

Inquiry: Which outcome did this test record for the compound O=C(O)CCC(NC(=O)c1ccc(Nc2nc3ccc(C(F)(F)F)cc3nc2-c2ccccc2)cc1)C(=O)O (configuration not stated) ?
Reply text: label 0

Inquiry: # fetch the recorded call for `CN(C)c1ccc2oc(=O)c3ccccc3c2c1` here
Reply text: label 0

Inquiry: // param item: `CC1(C)COC(c2ccccc2-c2ccccc2)=N1` ; yields the recorded call
Reply text: label 0

Inquiry: Hello, I am checking results. What call was entered for `Cc1csc(N/C=C2\C(=O)Oc3ccccc3C2=O)n1` ?
Reply text: label 0

Inquiry: Per the assay record, what outcome was assigned to `COc1ccc2c(c1)/c(=C/C#N)c1c3ccccc3[n+](C)n21` ?
Reply text: label 0

Inquiry: Hello, I am checking results. What call was entered for CCOC(=O)C1C(=O)CC(C)(O)C(C(=O)OCC)C1c1ccc(O)c(OC)c1 (configuration not stated) ?
Reply text: label 0

Inquiry: For CC(C)c1cc(C(C)C)c(S(=O)(=O)N/N=C2\CC3CCC2(C)C3(C)C)c(C(C)C)c1 (configuration not stated) , which call appears in the assay record?
Reply text: label 0

Inquiry: Which outcome was assigned to `CCOC(=O)NC(=O)c1cn(CCN2CCN(C(=O)NCCCCCCNC(=O)N3CCN(CCn4cc(C(=O)NC(=O)OCC)c(=O)n(CCN(CC)CC)c4=O)CC3)CC2)c(=O)n(CCC(CC)CC)c1=O` in this test?
Reply text: label 0

Inquiry: Entry `O=c1c2c3c(sc2nc2n1N=CN(c1ccccc1)C2)CCCC3` : call = ?
Reply text: label 0

Inquiry: Dear all, I need the recorded test outcome for COC(=O)C1=C(O)c2cc(OC)c(OC)c(OC)c2C(c2ccc3c(c2)OCO3)[C@@H]1C(=O)OC (some centres not stated) , thank you.
Reply text: label 0

Inquiry: Record lookup: outcome of this test for `CCOC(=O)/C(=C\c1c(C)[nH]c2ccccc12)P(=O)(OCC)OCC` ?
Reply text: label 0

Inquiry: Dear colleague, could you share the recorded outcome for `O=C(/C=C/c1ccccc1)/C=N/N1C(=S)N(c2ccccc2)C(=N\c2ccccc2)/C1=N/c1ccccc1` when you have a moment?
Reply text: label 0

Inquiry: Field: outcome | Entry: `O=[N+]([O-])c1ccc([I+]c2ccccc2)cc1`
Reply text: label 0
